This section presents molecules with their documented MIC values.
# System: Vero
# method: Tested for antiviral activity against parainfluenza virus in african green monkey kidney cell (Vero)
# Assay type: functional
# particulars: Chlorocebus sabaeus
parameter: MIC

# molecule, value reported
records = [
    ("S=C(N/N=C(/c1ccccn1)C12CC3CC(CC(C3)C1)C2)NNC(=S)c1ccc(Cl)cc1", "> 16 µg/mL"),
    ("C/C(=N/N=C(/S)N/N=C(\\S)c1ccc(Cl)cc1Cl)C12CC3CC(CC(C3)C1)C2", "> 3.2 µg/mL"),
    ("C/C(=N/N=C(\\N)S)C12CC3CC(CC(C3)C1)C2", "> 80 µg/mL"),
    ("C/C(=N/N=C(/S)N/N=C(\\S)c1ccc(Cl)cc1)C12CC3CC(CC(C3)C1)C2", "> 40 µg/mL"),
    ("N/N=C(\\S)N/N=C(/c1ccccn1)C12CC3CC(CC(C3)C1)C2", "> 80 µg/mL"),
    ("S=C(N/N=C(/c1ccccn1)C12CC3CC(CC(C3)C1)C2)NNC(=S)c1ccc(Cl)cc1Cl", "> 3.2 µg/mL"),
    ("C/C(=N/N=C(/S)NN)C12CC3CC(CC(C3)C1)C2", "> 80 µg/mL"),
    ("N/C(S)=N\\N=C(\\c1ccccn1)C12CC3CC(CC(C3)C1)C2", "> 3.2 µg/mL"),
    ("O=c1[nH]c(=O)n([C@H]2C[C@H](O)[C@@H](CO)O2)cc1/C=C/Br [BRIVUDINE]", "> 400 µg/mL"),
]

====

# Test system: CCRF-CEM
# method: Tested for the concentration required to reduce the viability of leukemia cells by 50% against cell growth of T cell leukemia cell line CCRF-CEM using MTT assay
# Assay type: functional
# particulars: Homo sapiens

# smiles representation, tested system, TGI / µM
records = [
    ("S=C(N/N=C(/c1ccccn1)C12CC3CC(CC(C3)C1)C2)NNC(=S)c1ccc(Cl)cc1Cl", "CCRF-CEM", 100),
    ("C/C(=N/N=C(/S)NN)C12CC3CC(CC(C3)C1)C2", "CCRF-CEM", 100),
    ("C/C(=N/N=C(/S)N/N=C(\\S)c1ccc(Cl)cc1Cl)C12CC3CC(CC(C3)C1)C2", "CCRF-CEM", 100),
    ("C/C(=N/N=C(\\N)S)C12CC3CC(CC(C3)C1)C2", "CCRF-CEM", 86.7),
]

====

Each entry below lists one item and its recorded MIC value.
# System: E6SM
# method: The compound was tested for antiviral activity against thymidine kinase-deficient (TK-HSV-1)virus in E6SM cell line(human embryonic skin-muscle fibroblasts)
# Format: functional

# compound, qual, MIC [µg/mL]
measured = [
    ("Nc1nc2c(ncn2COC(CO)CO)c(=O)[nH]1 [GANCICLOVIR]", "=", 9.6),
    ("O=c1[nH]c(=O)n([C@H]2C[C@H](O)[C@@H](CO)O2)cc1/C=C/Br [BRIVUDINE]", "=", 400),
    ("C/C(=N/N=C(/S)N/N=C(\\S)c1ccc(Cl)cc1)C12CC3CC(CC(C3)C1)C2", ">", 40),
    ("Nc1nc2c(ncn2COCCO)c(=O)[nH]1 [ACYCLOVIR]", "=", 48),
]
